Data origin: patent US6358885B1

Below, each entry is listed alongside its reported Plant response rating, Soybean.
- Test system: soybean
- assay comment: Test B preemergence/postemergence greenhouse plant response rating 0 to 10
- Assay type: in vivo, Glycine max
- condition info: Rate 200 g/ha, POSTEMERGENCE; 0 to 10 scale
- Description: Seeds of barley (Hordeum vulgare), barnyardgrass (Echinochloa crus-galli), bedstraw (Galium aparine), blackgrass (Alopecurus myosuroides), […] […] Treated plants and controls were maintained in a greenhouse for twelve to sixteen days, after which all species were compared to controls and visually evaluated. […]

compound	system under test	Plant response rating, Soybean
CCOC(=O)COc1cc(-c2nn3c(c2Cl)CCCC3)c(Cl)cc1Cl	soybean	5
CC(C)OC(=O)COc1cc(-c2nn3c(c2Cl)CCCC3)c(F)cc1Cl	soybean	4
CCC(C)Oc1cc(-c2nn3c(c2Cl)CCCC3)c(F)cc1Cl (centres unmarked)	soybean	7
C=CCOc1cc(-c2nn3c(c2Br)CCCC3)c(F)cc1Cl	soybean	6
C=CCN1C(=O)COc2cc(F)c(-c3nn4c(c3Br)CCCC4)cc21	soybean	10

###

- System: wild buckwheat
- assay comment: Test B preemergence/postemergence greenhouse plant response rating 0 to 10
- Format: in vivo, Polygonum convolvulus
- condition info: PREEMERGENCE, Rate 200 g/ha
Below, each entry is listed alongside its reported Plant response rating (0 to 10 scale), Wild buckwheat.
recorded endpoint: Plant response rating (0 to 10 scale), Wild buckwheat

given smiles	endpoint result
C=CCOc1cc(-c2nn3c(c2Cl)CCCC3)c(Cl)cc1Cl	10
O=C1COc2cc(F)c(-c3nn4c(c3Br)CCCC4)cc2N1	3
CC(C)OC(=O)COc1cc(-c2nn3c(c2Br)CCCC3)c(F)cc1Cl	10
Clc1cc(Cl)c(-c2nn3c(c2Cl)CCCC3)cc1OCC1CC1	0
COCOc1cc(-c2nn3c(c2Cl)CCCC3)c(F)cc1Cl	10
CCOC(=O)COc1cc(-c2nn3c(c2Cl)CCCC3)c(Cl)cc1Cl	3
CON=C(C)c1cc(-c2nn3c(c2Cl)CCCC3)c(F)cc1Cl	9
CC(C)Oc1cc(-c2nn3c(c2Cl)CCCC3)c(Cl)cc1Cl	8

###

- Test system: wheat
- assay comment: Test C preemergence/postemergence greenhouse plant response rating 0 to 100
- Type: in vivo, Triticum aestivum
- condition info: Rate 16 g/ha; POSTEMERGENCE

given smiles	Plant response rating (0 to 100), Wheat
COCN1C(=O)COc2cc(F)c(-c3nn4c(c3Cl)CCCC4)cc21	50
COc1cc(-c2nn3c(c2Cl)CCCC3)c(F)cc1Cl	30
C=CCN1C(=O)COc2cc(F)c(-c3nn4c(c3Cl)CCCC4)cc21	50
Fc1cc(Cl)c(OCCCl)cc1-c1nn2c(c1Cl)CCCC2	20
C=C(Cl)COc1cc(-c2nn3c(c2Cl)CCCC3)c(F)cc1Cl	20
COCN1C(=O)COc2cc(F)c(-c3nn4c(c3Br)CCCC4)cc21	50
CC(C)OC(=O)COc1cc(-c2nn3c(c2Cl)CCCC3)c(F)cc1Cl	10

###

- System: galium
- assay comment: Test F preemergence/postemergence greenhouse plant response rating 0 to 100
- Type: in vivo, Galium aparine
- condition info: POSTEMERGENCE, Rate 8 g/ha, 0 to 100 scale, stage (2) approximately four leaves or initial tillering
recorded endpoint: Galium (2) plant response rating

compound	recorded endpoint	endpoint result
Fc1cc(Cl)c(OCCCl)cc1-c1nn2c(c1Cl)CCCC2 [Compound 49]	Galium (2) plant response rating	30
CCOC(=O)COc1cc(-c2nn3c(c2Cl)CCCC3)c(F)cc1Cl [Compound 42]	Galium (2) plant response rating	30
C#CCOc1cc(-c2nn3c(c2Br)CCCC3)c(F)cc1Cl [Compound 26]	Galium (2) plant response rating	50
C#CC(C)Oc1cc(-c2nn3c(c2Cl)CCCC3)c(F)cc1Cl (stereo not shown) [Compound 36]	Galium (2) plant response rating	60
